Below, each of the binders is paired with its reported Absorbance at 450nm at 0.06ug/well value.
biological target: T1, K280-ac protein fragment (human); experiment: ELISA on K280-ac coated at 250 ng/well, HRP anti-human IgG
T1 construct: also called mAC
T1 peptide: VQIINK(Ac)KLDLSN
Ends that are not written are not given here.
I'd appreciate a reply containing only the number, no unit.

As a guide, the following entries are already answered.
BINDER	Absorbance at 450nm at 0.06ug/well
ADEL-Y01h v03 antibody (antibody, V domains shown, Humanized antibody; It was detected with anti-human IgG; also called Y01h01v03) VH: EVQLQESGPGLVKPSQTLSLTCTVSGDSITSGYWNWIRQPPGKGLEYIGYIRYSGRTYYNPSLKSRVTISRDTSKNQFSLKLSSVTAADTAVYYCASVYFTYWGQGTLVTVSS VL: EVVLTQSPGTLSLSPGERATLSCKSSQSLLDSDGKTYLNWYQQKPGQSPKRLISLVSKLDSGIPDRFSGSGSGTDFTLTISRLEPEDFAVYYCWQGSHFPYTFGQGTKLEIK	0.302
ADEL-Y01h01_v01 antibody (antibody, V domains shown, Humanized ADEL-Y01m; It was detected with anti-human IgG; also called ADEL-Y01h v01) VH: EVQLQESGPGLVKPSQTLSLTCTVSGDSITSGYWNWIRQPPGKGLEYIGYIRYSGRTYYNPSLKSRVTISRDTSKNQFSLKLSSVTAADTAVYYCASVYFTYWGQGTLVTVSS VL: DVVMTQSPLSLPVTLGQPASISCKSSQSLLDSDGKTYLNWFQQRPGQSPKRLISLVSKLDSGVPDRFSGSGSGTDFTLKISRVEAEDVGVYYCWQGSHFPYTFGQGTKLEIK	1.1
ADEL-Y01h v06 antibody (antibody, V domains shown, Humanized antibody; It was detected with anti-human IgG; also called Y01h01v06) VH: EVQLQQSGPGLVKPSQTLSLTCAVSGDSITSGYWNWIRQSPSRGLEWLGYIRYSGRTYYNPSLKSRITINRDTSKNQFSLQLNSVTPEDTAVYYCASVYFTYWGQGTLVTVSS VL: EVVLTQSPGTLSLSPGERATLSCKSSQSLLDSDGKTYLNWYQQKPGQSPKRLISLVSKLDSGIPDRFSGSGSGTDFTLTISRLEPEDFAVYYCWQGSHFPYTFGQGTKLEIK	0.265

As a next step, examine the binder that follows.
Request: Give the reported Absorbance at 450nm at 0.06ug/well for this binder. ADEL-Y01h v02 antibody (antibody, V domains shown, Humanized antibody; It was detected with anti-human IgG; also called Y01h01v02) VH: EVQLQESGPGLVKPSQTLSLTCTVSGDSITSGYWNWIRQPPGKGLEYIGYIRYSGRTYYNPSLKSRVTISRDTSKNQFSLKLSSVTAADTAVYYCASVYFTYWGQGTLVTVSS VL: DVVMTQSPDSLAVSLGERATINCKSSQSLLDSDGKTYLNWYQQKPGQSPKRLISLVSKLDSGVPDRFSGSGSGTDFTLTISSLQAEDVAVYYCWQGSHFPYTFGQGTKLEIK
Result: 0.377
